# testedOn: Ile83Glu anti-HER2 memAb
# Sequence (heavy, as listed by the source, chain 1 of 2): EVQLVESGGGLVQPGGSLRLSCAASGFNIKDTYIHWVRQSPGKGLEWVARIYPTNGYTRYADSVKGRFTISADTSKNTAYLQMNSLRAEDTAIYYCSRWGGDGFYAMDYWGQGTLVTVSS
# Sequence (light, as listed by the source, chain 2 of 2): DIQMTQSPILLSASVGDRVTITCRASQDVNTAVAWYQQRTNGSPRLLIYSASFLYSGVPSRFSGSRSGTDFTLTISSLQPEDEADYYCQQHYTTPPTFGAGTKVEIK
# measurementDescription: SPR; memAb variant amine-coupled to a CM5 chip, peptide flowed over at 30 uL/min, HBS-EP+, 37 °C, Biacore T100, 1:1 binding model
reportedProperty: Kd (nM)
The response must be a number in nM with no trailing unit.

-- ask Return reported Kd for target or system Ile83Glu anti-HER2 memAb, item 5-diphenylalanine-8-Arg-(PEG)2-azido-meditope ((Ac)CQFDA(Ph)2STRXLRCGGSK, X = arginine-(PEG)2-azide) (peptide) .
-- reply 2.1
